- Test system: ES8 (Ewing's Sarcoma)
- Protocol Notes: combination Emax (second highest fraction inhibited in the dose matrix, 72 h); higher = more inhibition; extreme values may be limits of the assay
Reported Metric: combination Emax

# Compound, System, Reported Metric, Quantitative Readout
records = [
    ("CC1(C)CCC(CN2CCN(c3ccc(C(=O)NS(=O)(=O)c4ccc(NCC5CCOCC5)c([N+](=O)[O-])c4)c(Oc4cnc5[nH]ccc5c4)c3)CC2)=C(c2ccc(Cl)cc2)C1 [Venetoclax] + Cn1cnc2c(F)c(Nc3ccc(Br)cc3Cl)c(C(=O)NOCCO)cc21 [Selumetinib] (first compound max 1 µM, 7x7, partner max 3 µM)", "ES8 (Ewing's Sarcoma)", "combination Emax", 0.195),
    ("COc1cccc(OCCCN)c1-c1cc(Nc2cnc(C#N)cn2)n[nH]1 [Prexasertib] + CN(C)CCCOc1ccc(-c2ccc3ncc4c(c3c2)n(C2CCOCC2)c(=O)n4C)cn1 [AZD0156] (first compound max 1 µM, 7x7, partner max 1 µM)", "ES8 (Ewing's Sarcoma)", "combination Emax", 0.837),
    ("C[C@@H](c1ccc2nccn2c1)n1nnc2ncc(-c3cnn(C)c3)nc21 [Savolitinib] + Cc1c2c(nn1C)CSCc1cc(n(C)n1)CSc1cc(c3ccccc3c1)OCCCc1c(C(=O)O)n(C)c3c-2c(Cl)ccc13 [AZD5991] (first compound max 1 µM, 7x7, partner max 1 µM)", "ES8 (Ewing's Sarcoma)", "combination Emax", 0.292),
    ("NC1(C(=O)N[C@@H](CCO)c2ccc(Cl)cc2)CCN(c2ncnc3[nH]ccc23)CC1 [Capivasertib] + CCN(CCO)CCCOc1ccc2c(Nc3cc(CC(=O)Nc4cccc(F)c4)[nH]n3)ncnc2c1 [AZD2811] (first compound max 10 µM, 7x7, partner max 1 µM)", "ES8 (Ewing's Sarcoma)", "combination Emax", 1),
]

* * *

- System: EVSA-T (Breast Carcinoma)
- Protocol Notes: combination Emax (second highest fraction inhibited in the dose matrix, 72 h); higher = more inhibition; extreme values may be limits of the assay
Known combination Emax of a selection of molecules

# Molecule, combination Emax
measured = [
    ("CCN(CCO)CCCOc1ccc2c(Nc3cc(CC(=O)Nc4cccc(F)c4)[nH]n3)ncnc2c1 [AZD2811] + O=C(c1cc(Cc2n[nH]c(=O)c3ccccc23)ccc1F)N1CCN(C(=O)C2CC2)CC1 [Olaparib] (first compound max 1 µM, 7x7, partner max 10 µM)", 0.31),
    ("COc1nnc2ccc(N3CCC(c4ccc(OCCN5CCN(C)C(=O)[C@H]5C)cc4)CC3)nn12 [AZD5153] + C[C@@H]1COCCN1C2=NC(=NC(=C2)C3(CC3)[S@](=N)(=O)C)C4=C5C=CNC5=NC=C4 [AZD6738] (first compound max 1 µM, 7x7, partner max 10 µM)", 0.977),
    ("CN(CCO)CC[C@H](CSc1ccccc1)Nc1ccc(S(=O)(=O)NC(=O)c2ccc(N3CCC([C@@H](O)c4ccccc4-c4ccc(Cl)cc4)CC3)cc2)cc1S(=O)(=O)C(F)(F)F [AZD4320] + C=CCn1c(=O)c2cnc(Nc3ccc(N4CCN(C)CC4)cc3)nc2n1-c1cccc(C(C)(C)O)n1 [AZD1775] (first compound max 1 µM, partner max 1 µM)", 0.191),
]

* * *

Below is a list of entries, each paired with its recorded Bliss excess value.
- Test system: DND-41 (T-Lymphoblastic Leukemia);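 further: after 72 h of two-drug dosing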
- Protocol Notes: Bliss excess, mean over the matrix (fraction); higher = more synergy

# Molecule, Bliss excess
records = [
    ("COc1cccc(OCCCN)c1-c1cc(Nc2cnc(C#N)cn2)n[nH]1 [Prexasertib] + Cc1cc2ncnn2cc1Nc1ncc2c(n1)n(C1CCOCC1)c(=O)n2C [AZD7648] (first compound max 1 µM, 7x7, partner max 10 µM)", -0.0979),
    ("COc1cccc(OCCCN)c1-c1cc(Nc2cnc(C#N)cn2)n[nH]1 [Prexasertib] + C[C@@H]1COCCN1C2=NC(=NC(=C2)C3(CC3)[S@](=N)(=O)C)C4=C5C=CNC5=NC=C4 [AZD6738] (first compound max 1 µM, 7x7, partner max 10 µM)", -0.0651),
    ("CN(CCO)CC[C@H](CSc1ccccc1)Nc1ccc(S(=O)(=O)NC(=O)c2ccc(N3CCC([C@@H](O)c4ccccc4-c4ccc(Cl)cc4)CC3)cc2)cc1S(=O)(=O)C(F)(F)F [AZD4320] + C1CN(CCC1(C(=O)N[C@@H](CCO)C2=CC=C(C=C2)Cl)N)C3=NC=NC4=C3C=CN4 [Capivasertib] (first compound max 1 µM, 7x7, partner max 3 µM)", -0.0205),
    ("C=CCn1c(=O)c2cnc(Nc3ccc(N4CCN(C)CC4)cc3)nc2n1-c1cccc(C(C)(C)O)n1 [AZD1775] + C[C@@H]1COCCN1C2=NC(=NC(=C2)C3(CC3)[S@](=N)(=O)C)C4=C5C=CNC5=NC=C4 [AZD6738] (first compound max 1 µM, partner max 10 µM)", 0.0181),
    ("CCc1c2c(nc3ccc(O)cc13)-c1cc3c(c(=O)n1C2)COC(=O)[C@]3(O)CC [SN-38] + CN(C)CCCOc1ccc(-c2ccc3ncc4c(c3c2)n(C2CCOCC2)c(=O)n4C)cn1 [AZD0156] (first compound max 0.3 µM, 7x7, partner max 1 µM)", -0.0584),
    ("CCN(CCO)CCCOc1ccc2c(Nc3cc(CC(=O)Nc4cccc(F)c4)[nH]n3)ncnc2c1 [AZD2811] + O=C(c1cc(Cc2n[nH]c(=O)c3ccccc23)ccc1F)N1CCN(C(=O)C2CC2)CC1 [Olaparib] (first compound max 1 µM, 7x7, partner max 10 µM)", -0.0059),
    ("CS(=O)(=O)CCNCc1ccc(-c2ccc3ncnc(Nc4ccc(OCc5cccc(F)c5)c(Cl)c4)c3c2)o1 [Lapatinib] + Cn1cnc2c(F)c(Nc3ccc(Br)cc3Cl)c(C(=O)NOCCO)cc21 [Selumetinib] (first compound max 10 µM, 7x7, partner max 10 µM)", 0.0178),
]

* * *

Measured combination Emax of individual entries
- Test system: LN-18 (Glioblastoma)
- Protocol Notes: combination Emax (second highest fraction inhibited in the dose matrix, 72 h); higher = more inhibition; extreme values may be limits of the assay
Reported Metric: combination Emax

# Molecule, Reported Metric, Quantitative Readout
data = [
    ("CC1(C)CCC(CN2CCN(c3ccc(C(=O)NS(=O)(=O)c4ccc(NCC5CCOCC5)c([N+](=O)[O-])c4)c(Oc4cnc5[nH]ccc5c4)c3)CC2)=C(c2ccc(Cl)cc2)C1 [Venetoclax] + Cn1cnc2c(F)c(Nc3ccc(Br)cc3Cl)c(C(=O)NOCCO)cc21 [Selumetinib] (first compound max 1 µM, 7x7, partner max 3 µM)", "combination Emax", 0.17),
    ("COc1nnc2ccc(N3CCC(c4ccc(OCCN5CCN(C)C(=O)[C@H]5C)cc4)CC3)nn12 [AZD5153] + CCN(CCO)CCCOc1ccc2c(Nc3cc(CC(=O)Nc4cccc(F)c4)[nH]n3)ncnc2c1 [AZD2811] (first compound max 1 µM, 7x7, partner max 1 µM)", "combination Emax", 0.632),
]

* * *

- System: BFTC-905 (Bladder Carcinoma)
- Protocol Notes: combination Emax (second highest fraction inhibited in the dose matrix, 72 h); higher = more inhibition; extreme values may be limits of the assay
# combination Emax listing for each entry below
Reported Metric: combination Emax

# Molecule, System, Reported Metric, Quantitative Readout
records = [
    ("COc1cccc(OCCCN)c1-c1cc(Nc2cnc(C#N)cn2)n[nH]1 [Prexasertib] + C[C@@H]1COCCN1C2=NC(=NC(=C2)C3(CC3)[S@](=N)(=O)C)C4=C5C=CNC5=NC=C4 [AZD6738] (first compound max 1 µM, 7x7, partner max 10 µM)", "BFTC-905 (Bladder Carcinoma)", "combination Emax", 0.917),
    ("O=C(c1cc(Cc2n[nH]c(=O)c3ccccc23)ccc1F)N1CCN(C(=O)C2CC2)CC1 [Olaparib] + Cc1c2c(nn1C)CSCc1cc(n(C)n1)CSc1cc(c3ccccc3c1)OCCCc1c(C(=O)O)n(C)c3c-2c(Cl)ccc13 [AZD5991] (first compound max 10 µM, 7x7, partner max 1 µM)", "BFTC-905 (Bladder Carcinoma)", "combination Emax", 0.178),
    ("COc1cccc2c1C(=O)c1c(O)c3c(c(O)c1C2=O)C[C@@](O)(C(=O)CO)C[C@@H]3O[C@H]1C[C@H](N)[C@H](O)[C@H](C)O1 [Doxorubicin] + Cc1cc2ncnn2cc1Nc1ncc2c(n1)n(C1CCOCC1)c(=O)n2C [AZD7648] (first compound max 1 µM, 7x7, partner max 10 µM)", "BFTC-905 (Bladder Carcinoma)", "combination Emax", 0.974),
    ("COc1cc2c(cc1OCCCCCOc1cc3c(cc1OC)C(=O)N1C=C(C)C[C@H]1C=N3)N=C[C@@H]1CC(C)=CN1C2=O [SG3199] + O=C(c1cc(Cc2n[nH]c(=O)c3ccccc23)ccc1F)N1CCN(C(=O)C2CC2)CC1 [Olaparib] (first compound max 0.001 µM, 7x7, partner max 10 µM)", "BFTC-905 (Bladder Carcinoma)", "combination Emax", 0.152),
    ("COc1cccc(OCCCN)c1-c1cc(Nc2cnc(C#N)cn2)n[nH]1 [Prexasertib] + CCc1c2c(nc3ccc(O)cc13)-c1cc3c(c(=O)n1C2)COC(=O)[C@]3(O)CC [SN-38] (first compound max 1 µM, 7x7, partner max 0.3 µM)", "BFTC-905 (Bladder Carcinoma)", "combination Emax", 0.983),
    ("Cc1c2c(nn1C)CSCc1cc(n(C)n1)CSc1cc(c3ccccc3c1)OCCCc1c(C(=O)O)n(C)c3c-2c(Cl)ccc13 [AZD5991] + CN(C)CCCOc1ccc(-c2ccc3ncc4c(c3c2)n(C2CCOCC2)c(=O)n4C)cn1 [AZD0156] (first compound max 1 µM, 7x7, partner max 1 µM)", "BFTC-905 (Bladder Carcinoma)", "combination Emax", 0.273),
    ("NC1(C(=O)N[C@@H](CCO)c2ccc(Cl)cc2)CCN(c2ncnc3[nH]ccc23)CC1 [Capivasertib] + CCN(CCO)CCCOc1ccc2c(Nc3cc(CC(=O)Nc4cccc(F)c4)[nH]n3)ncnc2c1 [AZD2811] (first compound max 10 µM, 7x7, partner max 1 µM)", "BFTC-905 (Bladder Carcinoma)", "combination Emax", 0.428),
]
